Recorded log10(IC50) values for a group of compounds are listed next.
- tested system: Mu-type opioid receptor (Rattus norvegicus, UniProt P33535)
- Sequence (P33535 whole entry): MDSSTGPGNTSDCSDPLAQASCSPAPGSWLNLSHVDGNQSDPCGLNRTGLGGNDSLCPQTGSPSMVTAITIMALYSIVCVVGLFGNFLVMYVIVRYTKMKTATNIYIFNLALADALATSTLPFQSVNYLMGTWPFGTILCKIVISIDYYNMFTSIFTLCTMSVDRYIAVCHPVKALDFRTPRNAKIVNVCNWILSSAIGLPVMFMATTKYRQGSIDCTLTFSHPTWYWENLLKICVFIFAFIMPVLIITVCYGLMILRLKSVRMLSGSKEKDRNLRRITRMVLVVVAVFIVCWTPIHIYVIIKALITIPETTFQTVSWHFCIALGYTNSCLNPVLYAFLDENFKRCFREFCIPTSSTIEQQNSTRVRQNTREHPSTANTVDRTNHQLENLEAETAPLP
result type: log10(IC50) (log10 of the value in nM)

INSERT INTO results (compound, result_type, number) VALUES
  ('Cc1cc(O)cc(C)c1C[C@H](N)C(=O)NC(C)/C(F)=C/CCCc1ccccc1 (stereo partly drawn)', 'log10(IC50)', 0.84),
  ('Cc1cc(O)cc(C)c1C[C@H](N)C(=O)N[C@@H](COCCCc1ccccc1)COC(C)(C)C', 'log10(IC50)', 1.52),
  ('Cc1cc(O)cc(C)c1C[C@H](N)C(=O)N[C@H](C)C(=O)NCCCc1ccccc1', 'log10(IC50)', -0.89),
  ('Cc1cc(O)cc(C)c1C[C@H](N)C(=O)N[C@H](CO)COCCCc1ccccc1', 'log10(IC50)', 0.22),
  ('Cc1cc(O)cc(C)c1C[C@H](N)C(=O)N1CCCCC1CNCCCc1ccccc1 (stereo partly drawn)', 'log10(IC50)', -1.35),
  ('Cc1cc(O)cc(C)c1C[C@H](N)C(=O)N[C@H](C)CNCCCc1ccccc1', 'log10(IC50)', -0.89),
  ('Cc1cc(O)cc(C)c1C[C@H](N)C(=O)N1CCCCC1COCCCc1ccccc1 (stereo partly drawn)', 'log10(IC50)', 0.21),
  ('Cc1cc(O)cc(C)c1C[C@H](N)C(=O)NC(C)/C=C/CCCc1ccccc1 (stereo partly drawn)', 'log10(IC50)', 0.73);

----------
- tested system: UniProtKB P34975
- Sequence (P34975 whole entry): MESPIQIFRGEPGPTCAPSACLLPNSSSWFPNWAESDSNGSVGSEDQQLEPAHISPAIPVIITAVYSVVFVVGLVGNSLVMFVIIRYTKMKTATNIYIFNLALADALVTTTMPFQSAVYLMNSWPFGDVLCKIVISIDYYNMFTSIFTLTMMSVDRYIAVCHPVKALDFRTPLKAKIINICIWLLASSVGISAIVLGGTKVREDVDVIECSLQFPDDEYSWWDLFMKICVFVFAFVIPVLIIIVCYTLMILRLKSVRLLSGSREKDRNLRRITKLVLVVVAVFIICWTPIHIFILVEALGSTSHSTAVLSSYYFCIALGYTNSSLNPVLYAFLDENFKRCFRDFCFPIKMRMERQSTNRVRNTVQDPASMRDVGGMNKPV
- protocol: Ratio of IC50 of opioid receptor kappa to IC50 opioid receptor mu
result type: Ratio

INSERT INTO assay_data (compound, result_type, number) VALUES
  ('Cc1cc(O)cc(C)c1C[C@H](N)C(=O)NC(C)/C=C/CCCc1ccccc1 (some centres undefined)', 'Ratio', 1100),
  ('Cc1cc(O)cc(C)c1C[C@H](N)C(=O)N1CCCCC1COCCCc1ccccc1 (some centres undefined)', 'Ratio', 173),
  ('Cc1cc(O)cc(C)c1C[C@H](N)C(=O)N[C@H](CO)COCCCc1ccccc1', 'Ratio', 3530),
  ('Cc1cc(O)cc(C)c1C[C@H](N)C(=O)N[C@H](C)COCCCc1ccccc1', 'Ratio', 2600),
  ('Cc1cc(O)cc(C)c1C[C@H](N)C(=O)N1CCCCC1CNCCCc1ccccc1 (some centres undefined)', 'Ratio', 222),
  ('Cc1cc(O)cc(C)c1C[C@H](N)C(=O)N[C@@H](COCCCc1ccccc1)COC(C)(C)C', 'Ratio', 282),
  ('Cc1cc(O)cc(C)c1C[C@H](N)C(=O)NC(C)/C(F)=C/CCCc1ccccc1 (some centres undefined)', 'Ratio', 1160),
  ('Cc1cc(O)cc(C)c1C[C@H](N)C(=O)N[C@H](C)C(=O)NCCCc1ccccc1', 'Ratio', 2920),
  ('Cc1cc(O)cc(C)c1C[C@H](N)C(=O)N[C@H](C)CNCCCc1ccccc1', 'Ratio', 2540);

----------
- tested system: Delta-type opioid receptor (Rattus norvegicus)
- Sequence (P33533 whole entry): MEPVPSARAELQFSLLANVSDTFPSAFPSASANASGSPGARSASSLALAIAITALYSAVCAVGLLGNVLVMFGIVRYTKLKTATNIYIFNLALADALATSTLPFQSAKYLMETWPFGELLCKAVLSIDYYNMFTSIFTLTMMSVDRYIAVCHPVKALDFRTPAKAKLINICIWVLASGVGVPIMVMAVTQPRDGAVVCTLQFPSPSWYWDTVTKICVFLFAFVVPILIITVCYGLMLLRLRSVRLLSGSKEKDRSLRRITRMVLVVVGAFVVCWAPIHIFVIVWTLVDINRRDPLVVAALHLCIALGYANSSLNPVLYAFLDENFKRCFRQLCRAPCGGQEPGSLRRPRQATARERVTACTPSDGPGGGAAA
- protocol: Binding ability towards opioid receptor delta expressed in homogenates of rat brain.
pIC50: −log10 of the molar value.
rule met means recorded pIC50 is 7 or above; rule not met means it is below 7.

INSERT INTO assay_data (compound, label) VALUES
  ('Cc1cc(O)cc(C)c1C[C@H](N)C(=O)N[C@@H](COCCCc1ccccc1)COC(C)(C)C', 'rule not met'),
  ('Cc1cc(O)cc(C)c1C[C@H](N)C(=O)N[C@H](CO)COCCCc1ccccc1', 'rule not met'),
  ('Cc1cc(O)cc(C)c1C[C@H](N)C(=O)N1CCCCC1CNCCCc1ccccc1 (some centres not stated)', 'rule met'),
  ('Cc1cc(O)cc(C)c1C[C@H](N)C(=O)N[C@H](C)COCCCc1ccccc1', 'rule met'),
  ('Cc1cc(O)cc(C)c1C[C@H](N)C(=O)N[C@H](C)C(=O)NCCCc1ccccc1', 'rule met'),
  ('Cc1cc(O)cc(C)c1C[C@H](N)C(=O)N[C@H](C)CNCCCc1ccccc1', 'rule met');

----------
Recorded Ratio values for a group of molecules are listed next.
- tested system: Delta-type opioid receptor (Rattus norvegicus) (UniProt P33533)
- Sequence (P33533 whole entry): as the sequence (P33533 whole entry) above
- protocol: Ratio of IC50 of opioid receptor delta to IC50 opioid receptor mu
result type: Ratio

INSERT INTO assay_data (molecule, tested_system, result_type, number) VALUES
  ('Cc1cc(O)cc(C)c1C[C@H](N)C(=O)N1CCCCC1CNCCCc1ccccc1 (some centres not stated)', 'Delta-type opioid receptor (Rattus norvegicus) (UniProt P33533)', 'Ratio', 269),
  ('Cc1cc(O)cc(C)c1C[C@H](N)C(=O)N[C@H](C)CNCCCc1ccccc1', 'Delta-type opioid receptor (Rattus norvegicus) (UniProt P33533)', 'Ratio', 354),
  ('Cc1cc(O)cc(C)c1C[C@H](N)C(=O)N1CCCCC1COCCCc1ccccc1 (some centres not stated)', 'Delta-type opioid receptor (Rattus norvegicus) (UniProt P33533)', 'Ratio', 67.9),
  ('Cc1cc(O)cc(C)c1C[C@H](N)C(=O)N[C@H](C)COCCCc1ccccc1', 'Delta-type opioid receptor (Rattus norvegicus) (UniProt P33533)', 'Ratio', 42),
  ('Cc1cc(O)cc(C)c1C[C@H](N)C(=O)N[C@H](CO)COCCCc1ccccc1', 'Delta-type opioid receptor (Rattus norvegicus) (UniProt P33533)', 'Ratio', 139),
  ('Cc1cc(O)cc(C)c1C[C@H](N)C(=O)N[C@@H](COCCCc1ccccc1)COC(C)(C)C', 'Delta-type opioid receptor (Rattus norvegicus) (UniProt P33533)', 'Ratio', 10.3),
  ('Cc1cc(O)cc(C)c1C[C@H](N)C(=O)N[C@H](C)C(=O)NCCCc1ccccc1', 'Delta-type opioid receptor (Rattus norvegicus) (UniProt P33533)', 'Ratio', 30.6);
